Where these numbers come from: patent US20240392024A1

- experimental system: T1, TNFR2-His (Sino Biological, 10417-H08H, NP_001057.1 Met1-Asp257, with multi-histidine tag expressed on … (human, UniProt P20333 23-257))
- T1 construct: range 1-257; Bought protein; also called recombinant human TNFR2 protein; TNFR2-His antigen; not shown: C-terminal multi-histidine tag
- T1 sequence (looked up): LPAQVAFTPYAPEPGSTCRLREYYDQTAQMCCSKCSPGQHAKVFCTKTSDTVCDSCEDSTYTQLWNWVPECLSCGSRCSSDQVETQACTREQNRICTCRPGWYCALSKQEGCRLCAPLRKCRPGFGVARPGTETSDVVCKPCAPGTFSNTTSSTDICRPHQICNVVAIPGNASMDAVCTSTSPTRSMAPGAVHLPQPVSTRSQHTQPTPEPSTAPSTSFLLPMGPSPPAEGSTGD
- assay explanation: ELISA, coated TNFR2-His
parameter: EC50 (nM)
Write the answer as a number in nM, unit excluded.

11G2huVH2 + huVL3(P07272) (antibody, V domains shown, Humanized 11G2) VH: QVQLVQSGAEVKKPGASVKVSCKASGYTFITYDINWVRQAPGQGLEWIGWIYPRDGNTQFNENFKGRVTMTTDTSTSTAYMELRSLRSDDTAVYYCARGDRDYGYFDVWGQGTTVTVSS VL: DIQMTQSPSSLSASVGDRVTITCQASQDISNYLNWYQQKPGKAPKLLIYFKSKLETGVPSRFSGSGSGTDFTFTISSLQPEDIATYYCQQGNTLPLTFGGGTKLEIK yielded EC50 of 0.576

11G2huVH1 + huVL1(P07262) (antibody, V domains shown, Humanized 11G2) VH: QVQLVQSGAEVKKPGASVKLSCKASGYTFITYDINWVRQAPGQGLEWIGWIYPRDGNTQFNENFKGKATMTVDESTSTAYMEVRSLRSDDTAVYYCARGDRDYGYFDVWGQGTTVTVSS VL: DIQMTPSTSSLSASVGDRVTITCRASQDISNYLNWYQQKPGKAVKLLIYFKSKLHSGVPSRFSGSGSGTDFTLTISSLQPEDFATYYCQQGNTLPLTFGGGTKLELK yielded EC50 of 0.095

11G2huVH4 + huVL1(P07265) (antibody, V domains shown, Humanized 11G2) VH: QVQLVQSGAEVKKPGASVKVSCKASGYTFITYDINWVRQAPGQGLEWIGWIYPRDGNTQYAQKFQGRVTMTTDTSTSTAYMELRSLRSDDTAVYYCARGDRDYGYFDVWGQGTTVTVSS VL: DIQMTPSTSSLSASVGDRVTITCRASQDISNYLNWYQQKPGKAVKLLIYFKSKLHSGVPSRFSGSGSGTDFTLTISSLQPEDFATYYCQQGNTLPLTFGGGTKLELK yielded EC50 of 0.286
